assay: self-splicing fitness, log relative to wild type (ln ratio); higher = more splicing; Tetrahymena group I intron in knt gene, E. coli kanamycin selection, DiMSum; sequences stand for … in CUCUCU…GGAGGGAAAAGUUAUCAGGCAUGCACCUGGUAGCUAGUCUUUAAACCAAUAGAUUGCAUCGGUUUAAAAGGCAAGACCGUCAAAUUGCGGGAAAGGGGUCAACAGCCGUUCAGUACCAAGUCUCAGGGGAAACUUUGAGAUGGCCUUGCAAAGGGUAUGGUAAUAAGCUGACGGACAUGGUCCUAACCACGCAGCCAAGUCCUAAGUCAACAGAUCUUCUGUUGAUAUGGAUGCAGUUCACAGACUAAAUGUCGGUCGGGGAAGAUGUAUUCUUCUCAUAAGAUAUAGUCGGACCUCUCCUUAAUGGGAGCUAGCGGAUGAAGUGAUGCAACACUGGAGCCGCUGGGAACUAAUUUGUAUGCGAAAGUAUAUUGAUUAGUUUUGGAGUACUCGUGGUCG; settings: 37 °C;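 also: selection with 25 µg/mL kanamycin versus none on LB agar overnight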
The sequences listed here are annotated with their self-splicing fitness (ln).

These recorded examples may help you get a feel for the data.
[
  {
    "residueString": "AACAAGCAAUAUUACGCUUG",
    "self-splicing fitness (ln)": -2.28
  },
  {
    "residueString": "AUGUAGCAAUAUUACGAAAU",
    "self-splicing fitness (ln)": -0.989
  },
  {
    "residueString": "CACAAGCAAUAUUACGACAC",
    "self-splicing fitness (ln)": -2.59
  },
  {
    "residueString": "GAUCAGCAAUAUUACGCCGU",
    "self-splicing fitness (ln)": -0.477
  },
  {
    "residueString": "UGGUAGCAAUAUUACGUCAC",
    "self-splicing fitness (ln)": -1.37
  },
  {
    "residueString": "GAUAAGCAAUAUUACGGAGG",
    "self-splicing fitness (ln)": -2.92
  },
  {
    "residueString": "UCCCAGCAAUAUUACGUGGU",
    "self-splicing fitness (ln)": -0.339
  },
  {
    "residueString": "CUACAGCAAUAUUACGAGUU",
    "self-splicing fitness (ln)": -2.76
  }
]

[ask] Can you share its self-splicing fitness (ln)? I mean this sequence: UUAAAGCAAUAUUACGGGUG
[reply] 0.271

[ask] Can you share its self-splicing fitness (ln)? I mean this sequence: GGGUAGCAAUAUUACGAUGU
[reply] 0.357

[ask] Can you share its self-splicing fitness (ln)? I mean this sequence: UGAUAGCAAUAUUACGGUAU
[reply] -1.92

[ask] Can you share its self-splicing fitness (ln)? I mean this sequence: AUAGAGCAAUAUUACGAUGU
[reply] 0.423

[ask] Can you share its self-splicing fitness (ln)? I mean this sequence: GUGCAGCAAUAUUACGGUAC
[reply] -2.07

[ask] Can you share its self-splicing fitness (ln)? I mean this sequence: CCCCAGCAAUAUUACGACUA
[reply] -2.93

[ask] Can you share its self-splicing fitness (ln)? I mean this sequence: CUAAAGCAAUAUUACGCUCC
[reply] -2.29

[ask] Can you share its self-splicing fitness (ln)? I mean this sequence: GGCGAGCAAUAUUACGACCC
[reply] -1.25

[ask] Can you share its self-splicing fitness (ln)? I mean this sequence: AGCGAGCAAUAUUACGACCA
[reply] -1.08

[ask] Can you share its self-splicing fitness (ln)? I mean this sequence: GGGUAGCAAUAUUACGGGCA
[reply] -0.58

[ask] Can you share its self-splicing fitness (ln)? I mean this sequence: CAAAAGCAAUAUUACGUGUA
[reply] -2.25

[ask] Can you share its self-splicing fitness (ln)? I mean this sequence: CCUAAGCAAUAUUACGUCGC
[reply] -1.85
